Recorded EC50 values for a group of compounds are listed next.
Target: GPR40 of human origin (Homo sapiens, UniProt O14842)
Sequence (O14842 whole entry): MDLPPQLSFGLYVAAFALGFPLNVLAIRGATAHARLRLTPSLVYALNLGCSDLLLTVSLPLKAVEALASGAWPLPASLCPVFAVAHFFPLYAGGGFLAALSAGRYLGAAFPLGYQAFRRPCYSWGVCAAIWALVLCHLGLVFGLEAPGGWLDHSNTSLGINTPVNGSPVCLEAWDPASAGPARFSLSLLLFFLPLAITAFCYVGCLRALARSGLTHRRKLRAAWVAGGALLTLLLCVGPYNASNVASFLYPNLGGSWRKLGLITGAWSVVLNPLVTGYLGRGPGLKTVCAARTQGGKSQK
Experiment: Agonist action on GPR40 of human origin (intracellular Ca2+ change)
Details: CHO cell strain stably expressing GPR40 of human origin; change in Ca2+ concentration, fluorescent calcium indicator
Method: Pharmacological Test Example 1: Agonist Action on GPR40 of Human Origin A CHO cell strain stably expressing GPR40 of human origin was used to determine the agonist action of a subject compound. This cell strain was seeded in a clear bottom 96 well plate at 4×10^4 cells/100 pt/well. […] The subject compound was diluted with a 20 mM HEPES-containing HBSS and was added to the cells by 50 μL, and the change in the Ca^2+ concentration was measured with an intracellular ion analyzer. […]

Compound: [O-][s+]1nc(O)cc1-c1ccc(O[C@@H]2CCc3c(-c4cccc(F)c4F)cccc32)cc1 (some centres unmarked)
Measurement label: EC50
Result: < 300 nM

*Q* Returns the measured EC50 for the input compound. Input: [O-][s+]1nc(O)cc1-c1cccc(OCCc2cccc(Oc3ccccc3)c2)c1 (centres unmarked)
*A* 300 to 3000 nM

*Q* Moving on to [O-][s+]1nc(O)cc1-c1ccc(O[C@@H]2CCc3c(-c4ccc(OCc5ccccc5)c(F)c4)cccc32)cc1 (some centres unmarked)
*A* 300 to 3000 nM

The reported numbers originate from patent US8629102B2.
